Molecular target: T1, nonmodified ubiquitin (UniProt P0CG48 1-76)
T1 construct: ubiquitin (Ub), the 76-residue cut product of its precursors; codon-optimized cDNA; 15N isotopically labelled in the NMR titration; also called Ub (wt); source: E. coli, purified (HisTrap, His-tag removed with UCHL3, HiTrap SP); not shown: His6, C-terminal, cleaved
Assay: NMR titration; unlabelled Ubiquilin-2 UBA domain added stepwise to 15N-labelled Ub variants (33 µM Ub 11AcK and nonmodified Ub; 157 µM the other variants); 1H-15N HSQC, 298 K, 18.8 T, 20 mM NaH2PO4 pH 6.8, 5% D2O; global fit of six residues assuming 1:1 binding
Settings: both partners purified
Endpoint Label: pKd
Numbers only, as −log10 of the molar value.

What value of pKd has been recorded for this entry: RFQQQLEQLNAMGFLNREANLQALIATGGDINAAIERLLGS (domain or fragment, UniProt Q9UHD9 581-621, looked up, Ubiquilin-2 (Chap1, hPLIC-2), human, UBA domain; Unlabelled; also called UQ2-UBA; Chap1; source: E. coli BL21 (DE3) Rosetta, purified (Glutathione Sepharose, TEV cleavage, SEC); not shown: GST, N-terminal, cleaved) [UBA domain of human Ubiquilin-2] 5.70
